tested on: human Cav3.1 Cav3.2 or Cav3.3 channel; assay: In vitro assay T channel (FLIPR calcium fluorescence); assay type: cell-based; conditions: HEK293 cells expressing human Cav3.1, Cav3.2 or Cav3.3; 10 mM Ca2+-induced fluo-4 fluorescence; determined up to 10 μM; read-out: T channel antagonistic activity IC50
Recorded endpoint: pIC50
# pIC50 is unitless: minus log10 of the molar concentration; print number only

Check out these entries, answers already filled in.
[[record]]
molecule = "CN(CCCc1nc2ccccc2[nH]1)CC[C@]1(O)C[C@H]2CC[C@@H]1C=C2c1ccc2ccccc2c1 (relative stereo) [Example 10]"
measured = 5.23

[[record]]
molecule = "COc1cccc2[nH]c(CCCN(C)CC[C@]3(OC(=O)C(C)(C)OC)C[C@H]4CC[C@@H]3C=C4c3ccccc3)nc12 (relative stereo) [Example 26F]"
measured = 6.02

[[record]]
molecule = "COc1cccc2[nH]c(CCCN(C)CC[C@]3(OC(=O)C(C)(C)C)C[C@H]4CC[C@@H]3C=C4c3ccccc3)nc12 (relative stereo) [Example 26D]"
measured = 5.98


Which pIC50 is reported for this molecule? CN(CCCc1nc2ccccc2[nH]1)CC[C@]1(O)C[C@H]2CC[C@@H]1C[C@@]21OCc2ccccc21 (relative stereo) [Example 79] 5.54

Fill in: pIC50 of Cc1ccc(C2=C[C@H]3CC[C@@H]2C[C@]3(CCN(C)CCCc2nc3ccccc3[nH]2)OC(=O)C(C)C)cc1 (relative stereo) [Example 6A] is ___ 5.17

Item under review: CCCC1=C(C)[C@H]2CC[C@@H]1C[C@@]2(O)CCN(C)CCCc1nc2ccccc2[nH]1 (relative stereo) [Example 16] . Reported pIC50? 5.24
